Cited source for all entries: PubChem BioAssay (NCI)

test system: SN12C renal; experiment: NCI-60 one-dose screen, 48 h; conditions: 10 µM unless noted
This is part of a sample that, as a whole, favours compounds with a hit. Of some 83,000 tested, about 20% had one in any assay. Calls of active or inactive are those of the source. Rule for the calls: active = growth percent below 10; inactive = the rest.
Your reply should match one of these outcome classes. active, inactive

compound | target.or.test.system | discrete.label
COc1ccc2oc(=O)cc(Cn3cc(Cn4cnc5c4c(=O)n(C)c(=O)n5C)nn3)c2c1 | SN12C renal | inactive
O=Cc1c(OCc2cnnn2CC(=O)Nc2ccc(Cl)cc2)ccc2ccccc12 | SN12C renal | inactive
O=S(=O)(c1ccccc1)n1cc2c(c1-c1ccccc1)CCc1sc(Nc3ccccc3)nc1-2 | SN12C renal | inactive
CS(=O)(=O)Nc1ccc(C(=O)NC(C(=O)NO)c2ccc(-c3cccc(F)c3)cc2)cc1 (stereo not given) | SN12C renal | inactive

Lookup: Record request — test call for COc1cc(C2C(C#N)=C(N)OC3=C2C(=O)c2ccccc2C3=O)cc(OC)c1O (stereo not given)
Found: inactive

Lookup: Record request — test call for Cn1c(/C=C(\C#N)c2cccc(C(F)(F)F)c2)nc2c(N3CCOCC3)nc(Cl)nc21
Found: active

Lookup: Record request — test call for CCCCOCc1cc(CN2CCN(C)CC2)c(O)c2ncccc12
Found: inactive
